System: T1, human CD115 extracellular domain (Sino Biological 10161-H08H) (human, UniProt P07333 20-517)
T1 construct: extracellular domain; bought recombinant protein; also called huCD115; hu-CD115
Experimental details: SPR ProteOn, mAb amine coupled, Hu CD115 analyte
Measurement label: Kd

Solved cases (2 shown):
Binder: CCK423A-IgG2κ (fully human) (antibody, V domains shown, also called Human IgG2κ) VH: QVQLEQSGAEVKRPGASVKVSCKASGYTFTGYYMHWVRQAPGQGLEWMGWINPNRGDTNYAQKFQGRVTMTRDTSISTAYMELSRLRSDDTAVYYCARDLEGGGPFDYWGQGTLVTVSS VL: DIVMTQTPLSLPVTPGEPASISCRSSQSLLDSDDGNTYLDWYLQKPGQSPQLLIYTLSYRASGVPDRFSGSGSGTDFTLKISRVEAEDVGVYYCMQRIEFPSTFGQGTRLEIK
Kd: 1.3 nM
//
Binder: CCK423A-IgG4κ (fully human) (antibody, V domains shown, also called Human IgG4κ; CCK423A-IgG4K) VH: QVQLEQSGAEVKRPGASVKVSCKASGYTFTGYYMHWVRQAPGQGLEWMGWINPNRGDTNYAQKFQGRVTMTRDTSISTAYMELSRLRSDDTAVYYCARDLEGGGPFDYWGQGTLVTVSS VL: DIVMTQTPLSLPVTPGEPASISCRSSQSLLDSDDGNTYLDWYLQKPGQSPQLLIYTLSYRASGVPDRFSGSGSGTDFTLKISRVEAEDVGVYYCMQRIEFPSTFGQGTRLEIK
Kd: 1.3 nM

Parameters: items (list). Returns: Kd for each item.
1. CCK423A-IgG1κ (fully human) (antibody, V domains shown, also called Human IgG1κ; CCK423A-I IgG1κ) VH: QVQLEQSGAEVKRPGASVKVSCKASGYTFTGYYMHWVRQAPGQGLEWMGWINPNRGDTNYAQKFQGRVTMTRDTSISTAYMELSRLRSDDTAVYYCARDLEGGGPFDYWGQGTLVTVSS VL: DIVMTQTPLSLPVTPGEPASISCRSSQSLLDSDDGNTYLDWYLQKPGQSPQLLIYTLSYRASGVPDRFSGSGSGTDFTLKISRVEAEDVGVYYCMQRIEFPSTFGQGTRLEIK
2. CCK-423A (antibody, V domains shown, AlivaMab chimeric IgG, human kappa LC; also called AlivaMab CCK423A; AlivaMab Mouse CCK423A) VH: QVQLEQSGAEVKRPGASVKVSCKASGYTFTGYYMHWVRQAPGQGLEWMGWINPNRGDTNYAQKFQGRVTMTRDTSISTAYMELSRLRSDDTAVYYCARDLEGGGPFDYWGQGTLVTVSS VL: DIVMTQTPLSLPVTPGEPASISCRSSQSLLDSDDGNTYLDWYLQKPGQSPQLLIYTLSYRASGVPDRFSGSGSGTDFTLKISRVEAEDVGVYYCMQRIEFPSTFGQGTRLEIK

1: 1.2 nM; 2: 1.2 nM
